Values from patent US20240000872A1

Tested on: Acinetobacter baumannii strains
test: Antibiotic susceptibility test (CLSI disk diffusion test method, read per CLSI 2016); further: key: ‘S’ means susceptible; ‘I’ means intermediate; ‘R’ means resistant
Type: cell-based
test-context: host strain YMC14/04/R1080

# compound, study-target, antibiotic susceptibility class
records = [
    ("C[C@H]1COc2c(N3CCN(C)CC3)c(F)cc3c(=O)c(C(=O)O)cn1c23 [Levofloxacin, levofloxacin]", "Acinetobacter baumannii strains", "R"),
    ("CCN1CCN(C(=O)N[C@@H](C(=O)N[C@@H]2C(=O)N3[C@@H]2SC(C)(C)[C@@H]3C(=O)O)c2ccccc2)C(=O)C1=O [Piperacillin, piperacillin]", "Acinetobacter baumannii strains", "R"),
    ("CN(C)c1ccc(O)c2c1C[C@H]1C[C@H]3[C@H](N(C)C)C(O)=C(C(N)=O)C(=O)[C@@]3(O)C(O)=C1C2=O [Minocycline, minocycline]", "Acinetobacter baumannii strains", "S"),
    ("C[C@@H](O)[C@H]1C(=O)N2C(C(=O)O)=C(SCCN=CN)C[C@H]12 [Imipenem, imipenem]", "Acinetobacter baumannii strains", "R"),
    ("CN(C)c1cc(NC(=O)CNC(C)(C)C)c(O)c2c1C[C@H]1C[C@H]3[C@H](N(C)C)C(O)=C(C(N)=O)C(=O)[C@@]3(O)C(O)=C1C2=O [Tigecycline, tigecycline]", "Acinetobacter baumannii strains", "S"),
    ("C[C@@H](O)[C@H]1C(=O)N2C(C(=O)O)=C(S[C@@H]3CN[C@H](C(=O)N(C)C)C3)[C@H](C)[C@H]12 [Meropenem, meropenem]", "Acinetobacter baumannii strains", "R"),
    ("NCC[C@H](O)C(=O)N[C@@H]1C[C@H](N)[C@@H](O[C@H]2O[C@H](CN)[C@@H](O)[C@H](O)[C@H]2O)[C@H](O)[C@H]1O[C@H]1O[C@H](CO)[C@@H](O)[C@H](N)[C@H]1O [Amikacin, amikacin]", "Acinetobacter baumannii strains", "S"),
    ("CC(C)(O/N=C(\\C(=O)N[C@@H]1C(=O)N2C(C(=O)[O-])=C(C[n+]3ccccc3)CS[C@H]12)c1csc(N)n1)C(=O)O [Ceftazidime, ceftazidime]", "Acinetobacter baumannii strains", "R"),
    ("CO/N=C(\\C(=O)N[C@@H]1C(=O)N2C(C(=O)O)=C(COC(C)=O)CS[C@H]12)c1csc(N)n1 [Cefotaxime, cefotaxime]", "Acinetobacter baumannii strains", "R"),
]
